Data provenance: PubChem BioAssay (NCI)

Tested on: EKVX NSCLC
assay overview: NCI-60 one-dose screen, 48 h (100 = growth as untreated, 0 = no growth, -100 = all killed)
experimental setup: 10 µM unless noted
This is part of a sample that, as a whole, favours compounds with a hit. Of some 83,000 tested, about 20% had one in any assay.

molecule: C=C(C)[C@@H]1CC[C@]2(C(=O)n3ccnc3)CC[C@]3(C)[C@H](CC[C@@H]4[C@@]5(C)CCCNC(C)(C)[C@@H]5CC[C@]43C)[C@@H]12
target under test: EKVX NSCLC
value unit: %
growth: 61.9
--
molecule: CCN(CC)c1ccc2c(c1)Oc1nc(N)c(C#N)c(N)c1C2Sc1ccc(OC)cc1 (centres undefined)
target under test: EKVX NSCLC
value unit: %
growth: 4.46
--
molecule: Nc1c(C(=O)Nc2cccc3ccccc23)sc2nc3c(cc12)CCCCCC3
target under test: EKVX NSCLC
value unit: %
growth: 41.6
--
molecule: N#Cc1ccc(C2C3=C(CCCC3=O)OC3=C2C(=O)c2ccccc2C3=O)cc1 (centres undefined)
target under test: EKVX NSCLC
value unit: %
growth: 63.1
--
molecule: COc1ccc(Nc2cc(NC(=O)CNc3cc(OC)c(Cl)c(OC)c3Cl)ncn2)cc1
target under test: EKVX NSCLC
value unit: %
growth: 72.2
--
molecule: COc1cc(C2=NN(c3ccccc3)C(c3cccc(Nc4ccnc5cc(C(F)(F)F)ccc45)c3)C2)cc(OC)c1OC (centres undefined)
target under test: EKVX NSCLC
value unit: %
growth: 85.2
--
molecule: Cc1cccc2nc3c(n12)C(=O)C(=O)c1ccccc1-3
target under test: EKVX NSCLC
value unit: %
growth: 64.1
--
molecule: C(=C\c1cn(-c2ccccc2)nc1-c1ccccc1)/c1nnc(-c2c[nH]c3ccccc23)o1
target under test: EKVX NSCLC
value unit: %
growth: 50.8
--
molecule: O=C1CCc2ccccc2N1
target under test: EKVX NSCLC
value unit: %
growth: 75.5

* * *

System: HOP-92 NSCLC
assay overview: NCI-60 one-dose screen, 48 h (100 = growth as untreated, 0 = no growth, -100 = all killed)
experimental setup: 10 µM unless noted
Compounds without any hit were thinned out: in the full panel of roughly 83,000, 20% have a hit.

compound: C#C[C@@]1(O)[C@@H](CO)O[C@@H](n2ccc3c(N)ncnc32)[C@@H]1O
target under test: HOP-92 NSCLC
value unit: %
growth: -15.8

compound: Cc1ccc2nc3nc4ccc[nH]c4cc3c2c1
target under test: HOP-92 NSCLC
value unit: %
growth: 121

compound: COc1ccc2c(c1)C1(C(=O)N2)C(C#N)=C(c2ccccc2)Nc2c1c(-c1ccccc1)nn2-c1ccccc1 (configuration not stated)
target under test: HOP-92 NSCLC
value unit: %
growth: 55.6

compound: O=C1CC(c2ccc(O)c(O)c2)Oc2cc(O)c([C@@H]3O[C@H](CO)[C@@H](O)[C@H](O)[C@H]3O)c(O)c21 (some centres not stated)
target under test: HOP-92 NSCLC
value unit: %
growth: 113

compound: COc1ccc(-c2nc(C#N)c(NCC(c3ccco3)N3CCCC3)o2)cc1 (configuration not stated)
target under test: HOP-92 NSCLC
value unit: %
growth: 58.2

compound: O=S(=O)(O)c1ccc(N=NSc2ccc3ccccc3c2)cc1
target under test: HOP-92 NSCLC
value unit: %
growth: 86.4

compound: COC(=O)c1nc(-c2ccccc2)oc1S(=O)(=O)n1nc(-c2ccccc2)cc1N
target under test: HOP-92 NSCLC
value unit: %
growth: 72.1

compound: COc1cc(N=Nc2cc(S(=O)(=O)O)cc3cc(S(=O)(=O)O)cc(O)c23)c(C)cc1N=Nc1c(S(=O)(=O)O)cc2cc(Nc3ccccc3)ccc2c1O
target under test: HOP-92 NSCLC
value unit: %
growth: 103

compound: CSc1cccc(NC(=O)Nc2nc3c(C)cccc3s2)c1
target under test: HOP-92 NSCLC
value unit: %
growth: 86.6

compound: Cc1nc2sc(C(=O)Nc3ccccc3Cl)c(N)c2cc1C(C)O (configuration not stated)
target under test: HOP-92 NSCLC
value unit: %
growth: 83.3

compound: CC(C)CSc1nc(Nc2ccccc2)c(C#N)c(-c2ccc(F)cc2)n1
target under test: HOP-92 NSCLC
value unit: %
growth: -47.6

compound: CC(=O)c1ccc(NC(=O)CSc2nnc(-c3cc(-c4ccc(C)cc4)nc4ccccc34)o2)cc1
target under test: HOP-92 NSCLC
value unit: %
growth: 66.9

compound: CC1=C/C(=N\N=C2/C=C(C)CC(C)(C)C2)CC(C)(C)C1
target under test: HOP-92 NSCLC
value unit: %
growth: 92.3

compound: N#Cc1c(-c2ccc(F)cc2)nc(N/N=C/c2c[nH]c3ccccc23)nc1N1CCOCC1
target under test: HOP-92 NSCLC
value unit: %
growth: 68.1

compound: CC1=C(CCCOC(=O)NCCCl)C2=C(C)C3(CC3)[C@@](C)(O)C(=O)C2=C1
target under test: HOP-92 NSCLC
value unit: %
growth: 8.91

compound: Cc1cc(O)cc(O)c1N=NC1=NCCS1
target under test: HOP-92 NSCLC
value unit: %
growth: 109

compound: CCOC(=O)c1cnn(-c2nc(-c3ccc(F)cc3)c(C#N)c(N3CCOCC3)n2)c1N
target under test: HOP-92 NSCLC
value unit: %
growth: 98.7

compound: COc1ccc(/C=C/C(=O)c2ccc(NC(=O)CSc3nnc(-c4ccc(OC)c(OC)c4)n3-c3ccccc3)cc2)cc1
target under test: HOP-92 NSCLC
value unit: %
growth: 52.7

compound: [2H]c1cc2c(c([2H])c1F)/C(=C/c1[nH]c(C)c(C(=O)NCCN(CC)CC)c1C)C(=O)N2
target under test: HOP-92 NSCLC
value unit: %
growth: 26.6

compound: c1ccc(-c2n(Cc3ccc4ccccc4n3)cc[n+]2Cc2ccc3ccccc3n2)cc1
target under test: HOP-92 NSCLC
value unit: %
growth: -6.03

compound: O=C(Nc1nc(-c2ccccc2Cl)cs1)c1cc(-c2ccc(Br)cc2)nc2ccccc12
target under test: HOP-92 NSCLC
value unit: %
growth: 21.4

compound: CCCCC(=O)Nc1c(C(=O)Nc2ccccc2)sc2nc3c(cc12)C(OC(=O)CCCC)CCC3 (configuration not stated)
target under test: HOP-92 NSCLC
value unit: %
growth: 84.4

compound: CCN(CC)c1ccc2c(c1)Oc1nc(N)c(C#N)c(N)c1C2Sc1ccc(OC)cc1 (configuration not stated)
target under test: HOP-92 NSCLC
value unit: %
growth: 88.3

compound: CCOc1ccc(C2N(c3cc(OC)c(OC)c(OC)c3)C(=O)C2(F)F)cc1 (configuration not stated)
target under test: HOP-92 NSCLC
value unit: %
growth: 55.6

compound: CC(=O)Oc1c2c(nc3c1c1ccccc1n3Cc1ccccc1)-c1ccccc1C2
target under test: HOP-92 NSCLC
value unit: %
growth: 90.5

compound: C[C@@H]1C(=O)[C@@H]2C[C@@H](O)[C@@H](O)C[C@]2(C)[C@H]2CC[C@@]3(C)C(=C12)CC[C@@H]3[C@@](C)(O)[C@H](O)CCC(C)(C)O
target under test: HOP-92 NSCLC
value unit: %
growth: 97.5

compound: C#CC[C@@H]1C[C@]2(C)[C@H]3CC[C@@H]4[C@H]5[C@H](C(=C)C)CC[C@]5(C(=O)O)CC[C@@]4(C)[C@]3(C)CC[C@H]2C(C)(C)[C@H]1O
target under test: HOP-92 NSCLC
value unit: %
growth: -6.27

compound: COc1ccc2nc3c(n2c1)C(=O)C(=O)c1ccccc1-3
target under test: HOP-92 NSCLC
value unit: %
growth: 37.4

compound: Cc1cc(C)nc(NS(=O)(=O)c2ccc(Nc3ccc4c5c(n(CCCN(C)C)c(=O)c4c3)-c3ccccc3C5=O)cc2)n1
target under test: HOP-92 NSCLC
value unit: %
growth: 90.1

compound: CN1CCN(/C=C2\CC(C(=O)NCc3ccc(Cl)cc3Cl)NC2=O)CC1 (configuration not stated)
target under test: HOP-92 NSCLC
value unit: %
growth: 98.8

compound: Cc1nc(C)c(C)nc1C
target under test: HOP-92 NSCLC
value unit: %
growth: 103

compound: C=C(C)[C@@H]1CC[C@]2(C(=O)N=C=S)CC[C@]3(C)[C@H](CC[C@@H]4[C@@]5(C)CCC(=O)C(C)(C)[C@@H]5CC[C@]43C)[C@@H]12
target under test: HOP-92 NSCLC
value unit: %
growth: 18.2

compound: COC(=O)c1oc2c(C(=O)/C=C/c3ccc(OC)cc3)c(OCCCN3CCCCC3)ccc2c1C
target under test: HOP-92 NSCLC
value unit: %
growth: -38.8

compound: O=C1c2ccccc2C(=O)c2c1oc1c2c(=O)[nH]c2ccccc21
target under test: HOP-92 NSCLC
value unit: %
growth: 71.4

compound: CCCCn1c(=O)c(/C=C/C(=O)/C=C/c2cc3ccccc3n(CCCC)c2=O)cc2ccccc21
target under test: HOP-92 NSCLC
value unit: %
growth: 64.4

compound: Oc1ccc(CNNc2ccnc3c(O)cccc23)c2cccnc12
target under test: HOP-92 NSCLC
value unit: %
growth: 54.3

compound: CC(C)C[C@H](C(=O)O)N(C)C(=O)[C@@H]1CCCN1C(=O)[C@H](C)OC(=O)[C@H](CCC(N)=O)NC(=O)[C@@H]1CCC(=O)N1
target under test: HOP-92 NSCLC
value unit: %
growth: 102
